Provenance of the data: patent US9650340B2

System tested: CDK9/CycT1 (Homo sapiens, UniProt P50750)
Construct: Recombinant full-length His-tagged human CDK9 and CycT1; His; purchased Invitrogen PV4131; host or cells: insect cells
Sequence (P50750 whole entry): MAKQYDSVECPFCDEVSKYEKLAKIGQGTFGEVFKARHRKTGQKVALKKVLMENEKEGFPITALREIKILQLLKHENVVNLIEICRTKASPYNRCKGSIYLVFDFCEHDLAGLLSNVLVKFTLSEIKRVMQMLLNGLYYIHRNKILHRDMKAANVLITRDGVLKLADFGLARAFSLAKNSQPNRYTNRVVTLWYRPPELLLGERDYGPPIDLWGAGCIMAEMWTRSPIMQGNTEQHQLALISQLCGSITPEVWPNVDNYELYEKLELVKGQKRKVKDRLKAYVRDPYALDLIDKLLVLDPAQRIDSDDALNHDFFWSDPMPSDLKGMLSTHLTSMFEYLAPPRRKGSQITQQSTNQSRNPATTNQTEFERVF
Sequence (O60563 whole entry partner): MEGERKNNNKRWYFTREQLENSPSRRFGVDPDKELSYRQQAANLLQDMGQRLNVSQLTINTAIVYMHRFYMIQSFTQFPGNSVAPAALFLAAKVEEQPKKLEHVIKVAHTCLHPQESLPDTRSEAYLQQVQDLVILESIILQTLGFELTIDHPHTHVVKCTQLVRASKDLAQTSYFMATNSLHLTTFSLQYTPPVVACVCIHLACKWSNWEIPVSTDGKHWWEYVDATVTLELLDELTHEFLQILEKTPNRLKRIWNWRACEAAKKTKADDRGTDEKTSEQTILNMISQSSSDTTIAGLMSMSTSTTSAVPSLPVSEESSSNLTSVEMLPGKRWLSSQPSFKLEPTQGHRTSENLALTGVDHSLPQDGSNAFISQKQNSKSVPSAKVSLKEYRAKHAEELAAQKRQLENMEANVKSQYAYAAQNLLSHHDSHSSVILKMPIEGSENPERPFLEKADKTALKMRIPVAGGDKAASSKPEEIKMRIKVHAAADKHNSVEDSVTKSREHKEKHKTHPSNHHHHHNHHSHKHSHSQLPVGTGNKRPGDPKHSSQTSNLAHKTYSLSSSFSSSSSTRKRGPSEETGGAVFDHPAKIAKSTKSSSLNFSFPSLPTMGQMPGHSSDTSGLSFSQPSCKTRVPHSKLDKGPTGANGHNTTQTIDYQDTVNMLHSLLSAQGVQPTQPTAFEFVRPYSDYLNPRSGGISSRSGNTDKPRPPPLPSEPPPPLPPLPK
Experimental details: CDK9/CycT1 kinase assay (TR-FRET, 10 μM ATP)
Format: biochemical
Measurement context: Method 1a
Returns: string. Value is rule met if measured IC50 is below 3 nM, and rule not met if it is greater than or equal to it.

The examples below pair each entry with its known result.
# Molecule, Label value
measured = [
    ("CCNC(=O)N=S(C)(=O)Cc1ccnc(Nc2cc(-c3ccc(F)cc3OC)c(F)cn2)c1 (racemic)", "rule met"),
    ("COc1cc(CS(C)(=N)=O)cc(Nc2cc(-c3ccc(F)cc3OC)c(F)cn2)n1 (racemic)", "rule met"),
    ("COc1cc(F)ccc1-c1cc(Nc2cc(CS(C)(=O)=NC(C)=O)ccn2)ncc1F (racemic)", "rule met"),
]

Query :: For this molecule, is IC50 lower than 3 nM? CCOc1cc(F)ccc1-c1cc(Nc2cc(CS(C)(=N)=O)cc(F)n2)ncc1F (single isomer, unassigned; (+)) [Example 28]
Result :: rule not met

Query :: I wonder whether COc1cc(F)ccc1-c1cc(Nc2cc(CS(C)(=N)=O)cc(C(F)(F)F)n2)ncc1F (single isomer, unassigned; (+)) [Example 22] has IC50 below 3 nM. Can you tell?
Result :: rule met

Query :: Dear colleague, could you confirm whether IC50 of COc1cc(F)ccc1-c1cc(Nc2cc(CS(=N)(=O)CCN)ccn2)ncc1F (racemic) falls below 3 nM? Thanks.
Result :: rule not met

Query :: Identify whether the molecule COc1cc(F)ccc1-c1cc(Nc2cc(CS(C)(=N)=O)c(Br)c(C)n2)ncc1F (racemic) records IC50 below 3 nM.
Result :: rule not met

Query :: Item COc1cc(F)ccc1-c1cc(Nc2cc(CS(C)(=O)=NC(=O)C(F)(F)F)cc(C(F)(F)F)n2)ncc1F (single isomer, unassigned; (-)) [Example 25] : IC50 beneath 3 nM, strictly?
Result :: rule not met
